- TARGET OR TEST SYSTEM: MAP kinase p38 (Homo sapiens) (UniProt O15264+Q15759+Q16539+P53778)
- ASSAY REMARKS: Inhibition of p38 phosphorylation in PMA-stimulated human U937 cells at 50 uM after 3 hrs by Western blotting
- Type: cell-based
- MEASUREMENT SETUP: U-937
Active and inactive are the calls of the source. The calls are words filed in the database; no cut-off is given here.
PARAMETER MEASURED: inhibition

Study these solved cases before continuing.
{"columns": ["COMPOUND STRUCTURE", "inhibition"],
 "data": [
  ["CCOc1ccc(/C=C2\\SC(=O)N(CCN)C2=O)cc1", "inactive"],
  ["NCCN1C(=O)S/C(=C\\c2ccc3c(c2)OCCO3)C1=O", "Active"],
  ["CCOc1ccccc1/C=C1\\SC(=O)N(CCN)C1=O", "inactive"],
  ["CN(C)CCN1C(=O)S/C(=C\\C/C=C/c2ccccc2)C1=O", "inactive"]
]}

Okay, now this molecule:
Lookup: Answer with the recorded inhibition of NCCN1C(=O)S/C(=C\c2cccc3ccccc23)C1=O only.
Found: Active

* * *

- TARGET OR TEST SYSTEM: Ribosomal protein S6 kinase alpha-1 (Homo sapiens) (UniProt Q15418)
- Sequence (Q15418 whole entry): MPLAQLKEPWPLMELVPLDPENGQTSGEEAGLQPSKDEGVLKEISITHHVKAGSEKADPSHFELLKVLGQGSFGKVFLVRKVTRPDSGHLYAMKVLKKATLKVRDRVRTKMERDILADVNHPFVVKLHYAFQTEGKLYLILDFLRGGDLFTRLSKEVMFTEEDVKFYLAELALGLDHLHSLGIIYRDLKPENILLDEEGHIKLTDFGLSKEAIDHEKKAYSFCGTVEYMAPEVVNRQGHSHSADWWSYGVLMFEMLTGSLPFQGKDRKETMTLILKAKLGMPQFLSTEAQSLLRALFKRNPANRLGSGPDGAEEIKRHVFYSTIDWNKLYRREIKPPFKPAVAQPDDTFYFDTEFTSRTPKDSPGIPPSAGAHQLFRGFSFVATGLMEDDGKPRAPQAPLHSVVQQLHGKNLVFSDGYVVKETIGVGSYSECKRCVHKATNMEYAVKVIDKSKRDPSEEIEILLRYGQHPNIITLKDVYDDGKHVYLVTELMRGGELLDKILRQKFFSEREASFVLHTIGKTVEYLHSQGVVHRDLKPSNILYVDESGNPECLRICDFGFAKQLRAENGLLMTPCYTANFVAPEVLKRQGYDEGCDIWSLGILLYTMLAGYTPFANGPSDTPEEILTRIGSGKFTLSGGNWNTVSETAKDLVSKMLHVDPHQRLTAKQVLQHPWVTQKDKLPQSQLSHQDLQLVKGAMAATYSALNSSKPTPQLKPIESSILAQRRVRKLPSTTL
- ASSAY REMARKS: Inhibition of Rsk1 phosphorylation in PMA-stimulated human U937 cells at 10 to 50 uM after 3 hrs by Western blotting
- Type: cell-based
- MEASUREMENT SETUP: U-937
Activity calls are given as the source filed them. No cut-off for these calls is given here.
Respond only with the outcome that fits, drawn from active, inactive

{"columns": ["COMPOUND STRUCTURE", "ASSIGNED LABEL"],
 "data": [
  ["NCCN1C(=O)S/C(=C\\c2ccccc2)C1=O", "inactive"],
  ["NCCN1C(=O)S/C(=C\\c2cccc([N+](=O)[O-])c2)C1=O", "inactive"],
  ["COc1ccc(/C=C2\\SC(=O)N(CCN)C2=O)cc1", "inactive"],
  ["NCCN1C(=O)S/C(=C\\c2ccc([N+](=O)[O-])cc2)C1=O", "inactive"],
  ["CCOc1ccccc1/C=C1\\SC(=O)N(CCN)C1=O", "active"]
]}

Lookup: Dear colleague, could you share the recorded outcome for NCCN1C(=O)S/C(=C\c2ccc(-c3ccc(Cl)cc3)cc2)C1=O when you have a moment?
Found: active

Lookup: Dear colleague, could you share the recorded outcome for Cc1ccc(/C=C2\SC(=O)N(CCN)C2=O)cc1 when you have a moment?
Found: inactive

* * *

- TARGET OR TEST SYSTEM: Ribosomal protein S6 kinase alpha-1 (Homo sapiens) (UniProt Q15418)
- ASSAY REMARKS: Inhibition of Rsk1 phosphorylation in PMA-stimulated human U937 cells at 10 to 50 uM after 3 hrs by Western blotting
- Format: cell-based
- MEASUREMENT SETUP: U-937
Active and inactive are the calls of the source. The calls are words filed in the database; no cut-off is given here.
PARAMETER MEASURED: inhibition

Study these solved cases before continuing.
{"columns": ["COMPOUND STRUCTURE", "MEASURED VALUE"],
 "data": [
  ["CCOc1ccc(/C=C2\\SC(=O)N(CCNC(C)=O)C2=O)cc1", "inactive"],
  ["NCCN1C(=O)S/C(=C\\c2cccc(F)c2)C1=O", "inactive"],
  ["CCOc1cccc(/C=C2\\SC(=O)N(CCN)C2=O)c1", "inactive"],
  ["NCCN1C(=O)S/C(=C\\c2ccc(F)cc2)C1=O", "inactive"]
]}

Lookup: Answer with the recorded inhibition of CCOc1ccc(/C=C2\SC(=O)N(CCN(C)C)C2=O)cc1 only.
Found: inactive
